Molecular target: T1, C-terminally FLAG-tagged human Gas6 recombinant protein (hGas6-F) (human, UniProt Q14393 31-678, gamma-carboxylated glutamic acid residues in the Gla domain (producer cells co-express rat VKOR and human GGCX); positions not given)
T1 construct: also called human Gas6-F; human Gas6 protein
T1 sequence: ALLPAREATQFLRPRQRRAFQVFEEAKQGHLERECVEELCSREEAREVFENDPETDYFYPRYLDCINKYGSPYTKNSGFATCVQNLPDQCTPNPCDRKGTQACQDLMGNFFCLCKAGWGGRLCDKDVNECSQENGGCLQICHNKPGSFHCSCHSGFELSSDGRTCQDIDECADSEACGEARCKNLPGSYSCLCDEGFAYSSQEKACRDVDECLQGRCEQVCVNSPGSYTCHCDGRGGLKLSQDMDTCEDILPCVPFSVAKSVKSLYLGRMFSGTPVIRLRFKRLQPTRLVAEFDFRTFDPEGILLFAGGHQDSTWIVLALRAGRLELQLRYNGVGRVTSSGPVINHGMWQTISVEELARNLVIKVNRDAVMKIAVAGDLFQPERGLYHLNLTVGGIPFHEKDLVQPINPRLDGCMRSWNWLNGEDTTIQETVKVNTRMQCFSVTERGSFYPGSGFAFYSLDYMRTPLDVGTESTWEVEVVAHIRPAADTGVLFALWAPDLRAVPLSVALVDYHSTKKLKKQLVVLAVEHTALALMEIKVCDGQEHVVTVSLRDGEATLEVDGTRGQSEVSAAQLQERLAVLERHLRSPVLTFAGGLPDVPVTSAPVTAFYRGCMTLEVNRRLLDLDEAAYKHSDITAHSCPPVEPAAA
Assay: SPR Biacore T100, captured antibody, Gas6 analyte, retest
observedProperty: Kd (nM)
Write the number in nM without appending the unit.

Below, 5 binders whose answers are already recorded.
{"columns": ["binder", "numericValue"],
 "data": [
  ["hzKM5321 LV7bHV0 antibody (antibody, V domains shown, Humanized; variant human IgG4 constant region (EU S228P, L235E, R409K), human kappa; also called B-10; LV7bHV0) VH: QVHLVQSGSELKKPGASVKISCKASGYTFTNYGMNWVRQAPGQGLEWMGWINTNTGEPTYTEEFKGRFVFSLDTSVTTSYLQISTLKAEDTAVYFCARDEGWFVYWGQGTLVTVSS VL: ETTVTQSPSSLSVSVGDRVTITCITSTDIDDDMNWYQQKPGKAPKLLISEGNTLRPGVPSRFSSSGSGTDFTFTISSTQPEDFADYYCLQTDSVPLTFGQGTKLEIK", 0.403],
  ["KM5320 chimeric antibody (antibody, V domains shown, also called KM5320 chimera; A-01) VH: QIQLVQSGPELKKPGETVKISCKASGYTFTNYGMNWVKQAPGKGLKWMGWINTETGEPTYSDDFKGRFAFSLETSATTAYLQINNLRNEDMATYFCAREDGYYGTLDYWGQGTSVTVSS VL: SIVMTQTPKFLLVSAGDRVTITCKASQSVSNDVAWYQQKPGQSPKVLIYYASNRYTGVPDRFTGSGYGTDFTFTISTVQAEDLAVYFCQQDYSSPWTFGGGTKLEIK", 0.73],
  ["KM5321 chimeric antibody (antibody, V domains shown, also called KM5321 chimera; B-01) VH: QIQLVQSGPELKKPGETVKISCRASGYTFTNYGMNWVKQAPGKGLKWMGWINTNTGEPTYTEEFKGRFAFSLETSATTAYLQINDLKNEDTATYFCARDEGWFVYWGQGTLITVSA VL: ETTVTQSPASLSVATGEKVTIRCITSTDIDDDMNWYQQKPGEPPKLLISEGNTLRPGVPSRFSSSGYGTDFVFTIENTLSEDVADYYCLQTDSVPLTFGAGTKLELK", 0.202],
  ["hzKM5320 LV5HV2 antibody (antibody, V domains shown, Humanized; variant human IgG4 constant region (EU S228P, L235E, R409K), human kappa; also called kzKM5320 LV5HV2; A-20) VH: QVQLVQSGSELKKPGASVKVSCKASGYTFTNYGMNWVRQAPGQGLEWMGWINTETGEPTYSDDFKGRFVFSLDTSVSTAYLQISSLKAEDTATYFCAREDGYYGTLDYWGQGTTVTVSS VL: DIVMTQSPDSLAVSLGERVTINCKASQSVSNDVAWYQQKPGQSPKVLIYYASNRYTGVPDRFSGSGSGTDFTFTISSVQAEDVAVYFCQQDYSSPWTFGQGTKLEIK", 1.29],
  ["hzKM5320 LV1bHV0 antibody (antibody, V domains shown, Humanized; variant human IgG4 constant region (EU S228P, L235E, R409K), human kappa; also called A-04) VH: QVQLVQSGSELKKPGASVKVSCKASGYTFTNYGMNWVRQAPGQGLEWMGWINTETGEPTYSDDFKGRFVFSLDTSVSTAYLQISSLKAEDTAVYYCAREDGYYGTLDYWGQGTTVTVSS VL: DVVMTQSPDSLAVSLGERVTINCKASQSVSNDVAWYQQKPGQSPKLLIYYASNRYTGVPDRFSGSGSGTDFTLTISSVQAEDVAVYYCQQDYSSPWTFGQGTKLEIK", 16.5]
]}

Data request: Look at this binder and give its reported Kd. hzKM5321 LV6HV2b antibody (antibody, V domains shown, Humanized; variant human IgG4 constant region (EU S228P, L235E, R409K), human kappa; also called B-24; LV6HV2b) VH: QVHLVQSGPELKKPGASVKISCKASGYTFTNYGMNWVRQAPGQGLEWMGWINTNTGEPTYTEEFKGRFVFSLDTSVTTSYLQISTLKAEDTATYFCARDEGWFVYWGQGTLVTVSS VL: ETTLTQSPSSLSVSTGDRVTITCITSTDIDDDMNWYQQKPGKPPKLLISEGNTLRPGVPSRFSSSGSGTDFTLTISSTQPEDFADYYCLQTDSVPLTFGQGTKVEIK
Data returned: 0.484
